System: pigweed (Amaranthus retroflexus)
Experiment: Test A pre-/postemergence: pigweed
Type: in vivo
Conditions: Preemergence, 125 g ai/ha; 0 to 100 scale where 0 is no effect and 100 is complete control
Source text: Seeds of barnyardgrass (Echinochloa crus-galli), crabgrass, large (large crabgrass, Digitaria sanguinalis), foxtail, giant (giant foxtail, Setaria faberii), morningglory (Ipomoea spp.), pigweed (Amaranthus retroflexus), velvetleaf (Abutilon theophrasti), wheat (Triticum aestivum), and corn (Zea mays) were planted into a blend of loam soil and sand and treated preemergence with a directed soil spray using test chemicals formulated in a non-phytotoxic solvent mixture which included a surfactant. […]
# Plant response rating, Pigweed annotations
Could you keep your reply to the number by itself?

>>> value_measured("CCCCOc1nn(-c2ccc(C(F)(F)F)cc2)nc1Cc1ccnc(C(F)(F)F)c1 [Compound 194]")
0

input: I'd like to know its Plant response rating, Pigweed. The molecule in question is Cc1nn(-c2ccc(C(F)(F)F)cc2)nc1Oc1ccnc(C(F)(F)F)c1 [Compound 120]
output: 100

input: Suppose we examine the molecule Oc1nn(-c2ccc(C(F)(F)F)cc2)nc1Cc1ccnc(C(F)(F)F)c1 [Compound 198] ; what Plant response rating, Pigweed value has been reported?
output: 0

====

Test system: foxtail, giant (giant foxtail, Setaria faberii)
Experiment: Test C pre-/postemergence: foxtail, giant
Type: in vivo
Details: Postemergence, 125 g ai/ha; scale 0 to 100, 0 no effect, 100 complete control
Examples of molecules with documented Plant response rating, Foxtail, Giant follow.

>>> value_measured("Cc1nn(-c2ccc(C(F)(F)F)cc2)nc1Oc1ccnc(C(F)(F)F)c1")
50
>>> value_measured("CCc1nn(-c2ccc(C(F)(F)F)c(F)c2)nc1Oc1ccnc(C(F)(F)F)c1")
65
>>> value_measured("Cc1nn(-c2ccc(C(F)(F)F)cn2)nc1Cc1cccc(C(F)(F)F)c1")
55

# next molecule below
input: Fill in the blank: the reported Plant response rating, Foxtail, Giant of "FCc1nn(-c2ccc(F)cc2)nc1Oc1ccnc(C(F)(F)F)c1" is ____.
output: 75

====

System: crabgrass, large (large crabgrass, Digitaria sanguinalis)
Assay: Test A pre-/postemergence: crabgrass, large
Format: in vivo
Conditions: Postemergence, 500 g ai/ha; 0 to 100 scale, 0 is no effect, 100 is complete control
Entries and their measured Crabgrass, Large plant response rating follow.
Note: the reply should be a number with no unit written.

# example entries with known answers
>>> value_measured("CCOc1nn(-c2ccc(Cl)cc2)nc1Cc1ccnc(C(F)(F)F)c1")
90
>>> value_measured("CCCc1nn(-c2ccc(F)cc2)nc1Oc1ccnc(C(F)(F)F)c1")
90

input: # input molecule: "CCCCOc1nn(-c2ccc(C(F)(F)F)cc2)nc1Cc1ccnc(C(F)(F)F)c1" ; wanted: its Crabgrass, Large plant response rating
output: 20

input: Data request, read-out Crabgrass, Large plant response rating, for "CCCc1nn(-c2ccc(F)cc2F)nc1Oc1ccnc(C(F)(F)F)c1"
output: 90

input: Entry "Oc1nn(-c2ccc(C(F)(F)F)cc2)nc1Cc1ccnc(C(F)(F)F)c1" : reported Crabgrass, Large plant response rating = ?
output: 10

input: Would you mind telling me what Crabgrass, Large plant response rating value was observed for "FC(F)(F)c1cccc(-n2nc(Oc3ccnc(C(F)(F)F)c3)c(C3CC3)n2)c1" ?
output: 20

====

Test system: lambsquarters (Chenopodium album)
Assay: Test C pre-/postemergence: lambsquarters
Assay type: in vivo
Settings: Preemergence, 31 g ai/ha; scale 0 (no effect) to 100 (complete control)
Source text: […] Treated plants and controls were maintained in a greenhouse for 13 to 15 days, after which time all species were compared to controls and visually evaluated. […]
Measured Plant response rating, Lambsquarters by item
Field format: numeric only.

>>> value_measured("CCc1nn(-c2ccc(C(F)(F)F)c(F)c2)nc1Oc1ccnc(C(F)(F)F)c1")
80
>>> value_measured("CCCc1nn(-c2ccc(F)cc2F)nc1Oc1ccnc(C(F)(F)F)c1")
98
>>> value_measured("CCOc1nn(-c2ccc(Cl)cc2)nc1Cc1ccnc(C(F)(F)F)c1")
90

input: Missing value: Plant response rating, Lambsquarters, lambsquarters (Chenopodium album), entry "CCCc1nn(-c2ccc(F)c(F)c2)nc1Oc1ccnc(C(F)(F)F)c1" . Fill in?
output: 90

====

System: corn (Zea mays)
Experiment: Test A pre-/postemergence: corn
Type: in vivo
Details: Postemergence, 125 g ai/ha; 0 to 100 scale, 0 is no effect, 100 is complete control
# Lookup of reported Corn plant response rating keyed by entry
API doc: respond with a numeric literal and nothing else, no unit.

>>> value_measured("Cc1nn(-c2ccc(C(F)(F)F)cc2)nc1Oc1cncc(C(F)(F)F)c1")
10
>>> value_measured("Cc1nn(-c2ccccn2)nc1C(=O)c1cccc(C(F)(F)F)c1")
0
>>> value_measured("Cc1nn(-c2ccc(F)cc2)nc1Oc1nccc(C(F)(F)F)n1")
0
>>> value_measured("Cc1nn(-c2ccc(F)c(F)c2)nc1Cc1ccnc(C(F)F)c1")
20

input: Form field: Corn plant response rating recorded for "COc1nn(-c2ccc(F)cc2)nc1C(=O)c1ccnc(C(F)(F)F)c1" with corn (Zea mays) (enter value)
output: 10

input: Could you share what Corn plant response rating was measured for "COc1nn(-c2cccc(F)c2)nc1Cc1ccnc(C(F)(F)F)c1" , tested on corn (Zea mays)?
output: 30

====

Test system: blackgrass (Alopecurus myosuroides)
Test: Test C pre-/postemergence: blackgrass
Type: in vivo
Settings: Postemergence, 31 g ai/ha; scale 0 to 100 (0 no effect, 100 complete control)
Source text: […] Treated plants and controls were maintained in a greenhouse for 13 to 15 days, after which time all species were compared to controls and visually evaluated. […]
// values below are reported Plant response rating, Blackgrass

See these solved cases before continuing.
>>> value_measured("Cc1nn(-c2ccc(F)c(C(F)(F)F)c2)nc1Cc1ccnc(C(F)(F)F)c1 [Compound 156]")
50
>>> value_measured("CCc1nn(-c2ccc(F)c(F)c2)nc1Oc1ccnc(C(F)(F)F)c1 [Compound 171]")
5

input: Param item = COc1nn(-c2ccc(C(F)(F)F)cc2)nc1Cc1ccnc(C(F)F)c1 [Compound 138] ; retrieve measured Plant response rating, Blackgrass.
output: 20

input: // Plant response rating, Blackgrass lookup, key: CCOc1nn(-c2ccc(C(F)(F)F)cc2)nc1Cc1ccnc(C(F)(F)F)c1 [Compound 164]
output: 5

====

The following compounds are listed with their measured Plant response rating, Foxtail, Giant values.
System: foxtail, giant (giant foxtail, Setaria faberii)
Assay: Test C pre-/postemergence: foxtail, giant
Assay type: in vivo
Conditions: Preemergence, 62 g ai/ha; scale of 0 to 100, 0 is no effect, 100 is complete control
Description: […] Treated plants and controls were maintained in a greenhouse for 13 to 15 days, after which time all species were compared to controls and visually evaluated. […]

Consider the worked cases shown below.
>>> value_measured("COc1nn(-c2ccc(C(F)(F)F)cc2)nc1Cc1ccnc(C(F)(F)F)c1")
100
>>> value_measured("CCc1nn(-c2ccc(C(F)(F)F)cc2)nc1Cc1ccnc(C(F)(F)F)c1")
100
>>> value_measured("FCc1nn(-c2ccc(F)cc2)nc1Oc1ccnc(C(F)(F)F)c1")
100
>>> value_measured("CCOc1nn(-c2ccc(C(F)(F)F)cc2)nc1Cc1ccnc(C(F)(F)F)c1")
65

input: Please give the measured Plant response rating, Foxtail, Giant for this compound: "Cc1nn(-c2ccc(C(F)(F)F)c(F)c2)nc1Oc1ccnc(C(F)(F)F)c1"
output: 100

input: Given "CCc1nn(-c2ccc(C(F)(F)F)c(F)c2)nc1Oc1ccnc(C(F)(F)F)c1" , state its recorded Plant response rating, Foxtail, Giant.
output: 100

====

Test system: velvetleaf (Abutilon theophrasti)
Test: Test C pre-/postemergence: velvetleaf
Assay type: in vivo
Conditions: Preemergence, 125 g ai/ha; scale 0 to 100, 0 no effect, 100 complete control
ENDPOINT_NAME: Plant response rating, Velvetleaf
Reply briefly: the number, and no unit.

Sample answers from the record:
>>> value_measured("Cc1nn(-c2ccc(C(F)(F)F)cc2)nc1Oc1ccnc(C(F)(F)F)c1")
35
>>> value_measured("Fc1ccc(-n2nc(Cc3ccnc(C(F)(F)F)c3)c(OC(F)F)n2)cc1")
15
>>> value_measured("COc1nn(-c2cccc(F)c2)nc1Cc1ccnc(C(F)(F)F)c1")
40
>>> value_measured("CCOc1nn(-c2ccc(F)cc2)nc1Cc1ccnc(C(F)(F)F)c1")
80
>>> value_measured("Cc1nn(-c2ccc(C(F)(F)F)cn2)nc1Oc1ccnc(C(F)(F)F)c1")
80

input: Can you look up Plant response rating, Velvetleaf on velvetleaf (Abutilon theophrasti) for "Cc1nn(-c2ccc(F)c(C(F)(F)F)c2)nc1Cc1ccnc(C(F)(F)F)c1" ?
output: 40

input: Query the reported Plant response rating, Velvetleaf for velvetleaf (Abutilon theophrasti); item: "CCc1nn(-c2ccc(F)cc2)nc1Cc1ccnc(C(F)(F)F)c1"
output: 90

input: Find Plant response rating, Velvetleaf (velvetleaf (Abutilon theophrasti)) for the entry "FCc1nn(-c2ccc(F)cc2)nc1Oc1ccnc(C(F)(F)F)c1"
output: 30
